- system-tested: 4-galactosyl-N-acetylglucosaminide 3-alpha-L-fucosyltransferase 9 (Homo sapiens, UniProt Q9Y231)
- Sequence (Q9Y231 whole entry): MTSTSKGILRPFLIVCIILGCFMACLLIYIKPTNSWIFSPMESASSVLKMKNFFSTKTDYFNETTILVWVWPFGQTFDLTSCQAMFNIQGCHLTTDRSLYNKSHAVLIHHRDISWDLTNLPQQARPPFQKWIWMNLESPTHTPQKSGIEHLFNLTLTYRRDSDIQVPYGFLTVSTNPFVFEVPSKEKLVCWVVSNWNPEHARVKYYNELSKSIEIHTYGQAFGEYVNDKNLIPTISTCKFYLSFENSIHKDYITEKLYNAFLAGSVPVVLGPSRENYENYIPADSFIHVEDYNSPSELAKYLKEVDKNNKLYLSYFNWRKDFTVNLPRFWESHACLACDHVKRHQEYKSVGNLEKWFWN
- measurement-protocol: Inhibition of human recombinant alpha1,3-fucosyltransferase 9 using GDP-[14C]-fucose preincubated for 30 mins by liquid scintillation counting
endpoint-label: pKi
// pKi here means minus log10 of the molar concentration (mol/L)

What pKi value was documented for this molecule, Nc1nc2c(ncn2[C@H]2C[C@H](O)[C@@H](CO[P@](=O)(O)OP(=O)(O)O)O2)c(=O)[nH]1 ?
4.30

Repeat with C[C@@H]1O[C@H](n2cc(COP(=O)(O)OP(=O)(O)OC[C@H]3O[C@@H](n4cnc5c(=O)[nH]c(N)nc54)[C@H](O)[C@@H]3O)nn2)[C@@H](O)[C@H](O)[C@@H]1O
3.86

Repeat with C[C@H]1O[C@@H](n2cc(COP(=O)(O)OP(=O)(O)OC[C@H]3O[C@@H](n4cnc5c(=O)[nH]c(N)nc54)[C@H](O)[C@@H]3O)nn2)[C@H](O)[C@@H](O)[C@H]1O
3.72

Repeat with Nc1nc2c(ncn2[C@@H]2O[C@H](COP(=O)(O)OP(=O)(O)OCc3cn([C@@H]4O[C@H](CO)[C@H](O)[C@H](O)[C@H]4O)nn3)[C@@H](O)[C@H]2O)c(=O)[nH]1
3.73

Repeat with Nc1nc2c(ncn2[C@@H]2O[C@H](COP(=O)(O)OP(=O)(O)O)[C@@H](O)[C@H]2O)c(=O)[nH]1
4.11

Repeat with Nc1nc2c(ncn2[C@@H]2O[C@H](COP(=O)(O)OP(=O)(O)OP(=O)(O)O)[C@@H](O)[C@H]2O)c(=O)[nH]1 [GUANOSINE TRIPHOSPHATE]
4.09

Repeat with NC[C@@H]1O[C@H](OP(=O)(O)OP(=O)(O)OC[C@H]2O[C@@H](n3cnc4c(=O)[nH]c(N)nc43)[C@H](O)[C@@H]2O)[C@@H](O)[C@H](O)[C@@H]1O
3.99

----------
- system-tested: 4-galactosyl-N-acetylglucosaminide 3-alpha-L-fucosyltransferase 9 (Homo sapiens)
- measurement-protocol: Inhibition of human recombinant alpha1,3-fucosyltransferase 9 using GDP-[14C]-fucose preincubated for 30 mins by liquid scintillation counting
Threshold-based label: IC50 under 100 µM gives t, IC50 not under 100 µM gives f.

Does the reported IC50 of the following compound sit strictly below 100 µM? Nc1nc2c(ncn2[C@@H]2O[C@H](COP(=O)(O)OP(=O)(O)O)[C@@H](O)[C@H]2O)c(=O)[nH]1
t

Repeat with Nc1nc2c(ncn2[C@@H]2O[C@H](COP(=O)(O)OP(=O)(O)OCc3cn([C@@H]4O[C@H](CO)[C@H](O)[C@H](O)[C@H]4O)nn3)[C@@H](O)[C@H]2O)c(=O)[nH]1
f

Repeat with NC[C@@H]1O[C@H](OP(=O)(O)OP(=O)(O)OC[C@H]2O[C@@H](n3cnc4c(=O)[nH]c(N)nc43)[C@H](O)[C@@H]2O)[C@@H](O)[C@H](O)[C@@H]1O
f

Repeat with Nc1nc2c(ncn2[C@@H]2O[C@H](COP(=O)(O)OP(=O)(O)OP(=O)(O)O)[C@@H](O)[C@H]2O)c(=O)[nH]1 [GUANOSINE TRIPHOSPHATE]
t

Repeat with C[C@@H]1O[C@H](n2cc(COP(=O)(O)OP(=O)(O)OC[C@H]3O[C@@H](n4cnc5c(=O)[nH]c(N)nc54)[C@H](O)[C@@H]3O)nn2)[C@@H](O)[C@H](O)[C@@H]1O
f

Repeat with C[C@H]1O[C@@H](n2cc(COP(=O)(O)OP(=O)(O)OC[C@H]3O[C@@H](n4cnc5c(=O)[nH]c(N)nc54)[C@H](O)[C@@H]3O)nn2)[C@H](O)[C@@H](O)[C@H]1O
f

Repeat with Nc1nc2c(ncn2[C@H]2C[C@H](O)[C@@H](CO[P@](=O)(O)OP(=O)(O)O)O2)c(=O)[nH]1
t
